Just for reference, patent US20170240926 is where these values come from.

Entries and their Kd
# system_tested: FTase (protein farnesyltransferase) (UniProt P49354)
No end group written: not given here. *: point of attachment. Dansyl = CN(C)c1cccc2c(S(=O)(=O)*)cccc12
Kindly answer with a numeric value in nM, unit omitted.

Use the examples below as a reference point.
[
  {
    "binder": "Dansyl-TKCVLH [dansyl-TKCVLH]",
    "reading_unit": "nM",
    "Kd": 14
  },
  {
    "binder": "Dansyl-TKCYVM [dansyl-TKCYVM]",
    "reading_unit": "nM",
    "Kd": 12
  },
  {
    "binder": "Dansyl-TKCSFM [dansyl-TKCSFM]",
    "reading_unit": "nM",
    "Kd": 10
  },
  {
    "binder": "Dansyl-TKCTLQ [dansyl-TKCTLQ]",
    "reading_unit": "nM",
    "Kd": 7
  },
  {
    "binder": "Dansyl-TKCSLM [dansyl-TKCSLM]",
    "reading_unit": "nM",
    "Kd": 8
  },
  {
    "binder": "Dansyl-TKCLVM [dansyl-TKCLVM]",
    "reading_unit": "nM",
    "Kd": 6
  },
  {
    "binder": "Dansyl-TKCTKF [dansyl-TKCTKF]",
    "reading_unit": "nM",
    "Kd": 6
  }
]

Now consider a different binder.
[ask] Entry Dansyl-TKCAVQ [dansyl-TKCAVQ] needs its Kd filled in; supply it.
[reply] 13
